FYI, the data here is from patent US5597823A.

Measured Kb accompanies every entry in the list below.
Target: α-1B adrenoceptor (rat spleen) (Rattus norvegicus)
Construct: PE-induced contraction of rat spleen; from tissue; host or cells: rat spleen
Sequence (P15823 1-515): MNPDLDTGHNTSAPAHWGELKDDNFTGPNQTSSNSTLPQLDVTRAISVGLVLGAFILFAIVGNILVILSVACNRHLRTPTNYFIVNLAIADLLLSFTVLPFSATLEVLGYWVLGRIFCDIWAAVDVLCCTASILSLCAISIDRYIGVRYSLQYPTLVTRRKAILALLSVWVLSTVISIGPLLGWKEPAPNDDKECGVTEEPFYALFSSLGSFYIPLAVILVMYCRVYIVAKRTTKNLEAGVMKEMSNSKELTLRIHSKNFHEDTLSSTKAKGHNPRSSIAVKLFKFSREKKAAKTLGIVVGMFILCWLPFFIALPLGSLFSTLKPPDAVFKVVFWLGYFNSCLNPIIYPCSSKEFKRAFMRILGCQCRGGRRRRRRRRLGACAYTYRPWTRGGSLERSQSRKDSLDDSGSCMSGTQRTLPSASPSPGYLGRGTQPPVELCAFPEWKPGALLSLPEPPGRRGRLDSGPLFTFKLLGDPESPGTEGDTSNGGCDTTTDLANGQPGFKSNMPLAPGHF
Assay: Functional antagonism: phenylephrine (PE)-induced contraction of rat spleen
Assay type: cell-based
Conditions: vs phenylephrine; Schild plot; read-out: pA2 Rat Spleen [α-1B] (converted)
Structures can show the parent of a compound that is named as a salt.
Quick note: give the figure in nM, leave out the unit.

Compound	Reading Unit	Reported
COc1cccc2c1CC[C@@H]1CN(CCn3c(=O)[nH]c4c([nH]c5ccccc54)c3=O)C[C@@H]21 (relative stereo) [Example 17, hydrochloride]	nM	63.1
COc1cccc2c1[C@@H]1CN(CCn3c(=O)[nH]c4c(sc5ccccc54)c3=O)C[C@@H]1CC2 (relative stereo) [Example 5, hydrochloride]	nM	148
COc1cccc2c1CC[C@H]1CN(CCn3c(=O)[nH]c4c(sc5ccccc54)c3=O)C[C@@H]21 (relative stereo) [Example 1, hydrochloride]	nM	21.4
COc1ccc2sc3c(=O)n(CCN4C[C@@H]5CCc6c(OC)cccc6[C@@H]5C4)c(=O)[nH]c3c2n1 [Example 64, dihydrochloride]	nM	25.1
COc1cccc2c1CC[C@H]1CN(CCn3c(=O)c4sc5nccnc5c4n(C(C)C)c3=O)C[C@@H]21 [Example 90, hydrochloride]	nM	26.9

// next entry
In: Identify measured Kb obtained with α-1B adrenoceptor (rat spleen) (Rattus norvegicus) for COc1cccc2c1CC[C@H]1CN(CCn3c(=O)[nH]c4c(sc5ncccc54)c3=O)C[C@@H]21 (relative stereo) [Example 23, hydrochloride] .
Out: 151

---

molecular target: α-1B adrenoceptor (rat spleen) (Rattus norvegicus); construct: PE-induced contraction of rat spleen; from tissue; host or cells: rat spleen; test: Functional antagonism: phenylephrine (PE)-induced contraction of rat spleen; type: cell-based; details: vs phenylephrine; Schild plot; read-out: pA2 Rat Spleen [α-1B] (converted)
Where a name gives a salt, the structure may show the parent alone.
Property: Kb (nM)
Use nM as the unit, but write only the number.

In: Assign Kb to the following record: COc1cccc2c1CC[C@H]1CN(CCn3c(=O)[nH]c4c(sc5ccc(C#N)nc54)c3=O)C[C@@H]21 [Example 108, dihydrochloride]
Out: 11.2

In: Look up and report measured Kb for this entry: COc1cccc2c1CC[C@H]1CN(CCn3c(=O)c4sc5ccccc5c4n(C)c3=O)C[C@@H]21 (relative stereo) [Example 11, hydrochloride]
Out: 51.3

In: Output Kb of COc1cccc2c1CC[C@H]1CN(CCn3c(=O)[nH]c4c(sc5ccc(Cl)nc54)c3=O)C[C@@H]21 [Example 62, dihydrochloride]
Out: 21.9

In: Identify the reported Kb for the following entry. COc1cccc2c1CC[C@H]1CN(CCn3c(=O)[nH]c4c([nH]c5ccccc54)c3=O)C[C@@H]21 (relative stereo) [Example 14, hydrochloride]
Out: 23.4

---

Quick reference: pA2 Dog Prostate [α-1A] of the listed items.
molecular target: α-1A adrenoceptor (dog prostate) (Canis lupus); assay: Functional antagonism: phenylephrine (PE)-induced contraction of canine prostate strips; assay type: cell-based; conditions: Table 2b; vs phenylephrine; Schild plot
Structures can show the parent of a compound that is named as a salt.
Output spec: single numeric token, no unit.

Molecule	pA2 Dog Prostate [α-1A]
CCn1c(=O)n(CCN2C[C@@H]3CCc4c(OC)cccc4[C@@H]3C2)c(=O)c2sc3nccnc3c21 [Example 98, hydrochloride]	9.39
COc1cccc2c1CC[C@H]1CN(CCn3c(=O)[nH]c4c(ccc5cccnc54)c3=O)C[C@@H]21 [Example 83, hydrochloride]	8.43
COc1cccc2c1CC[C@H]1CN(CCn3c(=O)[nH]c4c(sc5ccc(NC(C)=O)cc54)c3=O)C[C@@H]21 [Example 49, hydrochloride]	7.84
CCc1cccc2c1CC[C@H]1CN(CCn3c(=O)[nH]c4c(sc5cccnc54)c3=O)C[C@@H]21 [Example 113, dihydrochloride]	8.22
COc1cccc2c1[C@@H]1CN(CCn3c(=O)[nH]c4c([nH]c5ccccc54)c3=O)C[C@@H]1CC2 [Example 24, hydrochloride]	8.6

Next up:
In: Recall and state the measured pA2 Dog Prostate [α-1A] for COc1cccc2c1CC[C@H]1CN(CCn3c(=O)[nH]c4c(sc5cccc(OC)c54)c3=O)C[C@@H]21 [Example 73, hydrochloride] .
Out: 8.42

---

Listing of entries alongside the reported pA2 Dog Prostate [α-1A].
Target: α-1A adrenoceptor (dog prostate) (Canis lupus, UniProt A0A8I3NK63)
Sequence (A0A8I3NK63 1-466): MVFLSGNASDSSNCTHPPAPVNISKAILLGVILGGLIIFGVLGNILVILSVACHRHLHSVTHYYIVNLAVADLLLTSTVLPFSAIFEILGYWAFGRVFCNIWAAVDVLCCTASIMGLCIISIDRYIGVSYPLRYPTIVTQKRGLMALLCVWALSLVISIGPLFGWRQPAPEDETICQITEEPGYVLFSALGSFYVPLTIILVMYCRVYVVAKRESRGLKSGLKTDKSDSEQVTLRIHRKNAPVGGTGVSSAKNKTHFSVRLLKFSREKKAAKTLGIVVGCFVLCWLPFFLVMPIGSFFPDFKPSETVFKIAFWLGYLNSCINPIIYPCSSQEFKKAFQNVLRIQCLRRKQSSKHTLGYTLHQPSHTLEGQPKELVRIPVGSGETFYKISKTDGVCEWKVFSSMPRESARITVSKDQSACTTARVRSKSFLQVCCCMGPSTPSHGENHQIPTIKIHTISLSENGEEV
Assay: Functional antagonism: phenylephrine (PE)-induced contraction of canine prostate strips
Type: cell-based
Conditions: Table 2b; vs phenylephrine; Schild plot
Source text: Functional assays indicative of pharmacologically defined α-1 adrenoceptors were used to further characterize compounds. Inhibition of phenylephrine (PE)-induced contraction of canine prostate smooth muscle can be correlated with α-1A adrenoceptor activation. […] For each of these models, agonist dose response curves were repeated against increasing concentrations of test agent to derive a Schild plot [log ([…]) against log (molarity of test agent)] to determine the pA2. […]
Counter-ions that a name gives are not always drawn.
# respond with the number and nothing more

Molecule	Property	Reported
COc1cccc2c1CC[C@H]1CN(CCCCn3c(=O)[nH]c4c(sc5ccccc54)c3=O)C[C@@H]21 (relative stereo) [Example 12, hydrochloride]	pA2 Dog Prostate [α-1A]	7.33
O=c1[nH]c2c(sc3ncccc32)c(=O)n1CCN1C[C@@H]2CCc3c(ccc4c3OCO4)[C@@H]2C1 (relative stereo) [Example 111, hydrochloride]	pA2 Dog Prostate [α-1A]	8.00
COc1cccc2c1CC[C@H]1CN(CCn3cnc4c([nH]c5ccccc54)c3=O)C[C@@H]21 [Example 66, hydrochloride]	pA2 Dog Prostate [α-1A]	9.71
COc1cccc2c1CC[C@H]1CN(CCn3c(=O)c4sc5nccnc5c4n(C)c3=O)C[C@@H]21 [Example 95, hydrochloride]	pA2 Dog Prostate [α-1A]	9.07
COc1cc2sc3c(=O)n(CCN4C[C@@H]5CCc6c(OC)cccc6[C@@H]5C4)c(=O)[nH]c3c2cc1OC [Example 68]	pA2 Dog Prostate [α-1A]	7.87
COc1cccc2c1CC[C@H]1CN(CCn3c(=O)[nH]c4c(sc5c(Cl)ccnc54)c3=O)C[C@@H]21 [Example 63, dihydrochloride]	pA2 Dog Prostate [α-1A]	8.6

In: Specify pA2 Dog Prostate [α-1A] for COc1cccc2c1[C@@H]1CN(CCCCn3c(=O)[nH]c4c(sc5ccccc54)c3=O)C[C@@H]1CC2 (relative stereo) [Example 15, hydrochloride] and stop.
Out: 7.34

In: For COc1cccc2c1CC[C@H]1CN(CCn3c(=O)[nH]c4c(sc5c(OC)ccnc54)c3=O)C[C@@H]21 [Example 65, dihydrochloride] , write its pA2 Dog Prostate [α-1A].
Out: 8.75

In: Respond only with pA2 Dog Prostate [α-1A] recorded for COc1cccc2c1[C@H]1CN(CCn3c(=O)[nH]c4c(sc5ccccc54)c3=O)C[C@H]1CC2 [Example 19, hydrochloride]
Out: 6.66

In: Provide pA2 Dog Prostate [α-1A] value for the following molecule: COc1cccc2c1CC[C@H]1CN(CCn3c(=O)[nH]c4c(sc5ccc(N(C)C)cc54)c3=O)C[C@@H]21 [Example 50, hydrochloride]
Out: 7.24

In: Consider the molecule COc1cccc2c1CC[C@H]1CN(CCn3c(-c4ccccc4)nc4c(sc5ccccc54)c3=O)C[C@@H]21 (relative stereo) [Example 30, hydrochloride] . State its measured pA2 Dog Prostate [α-1A].
Out: 7.06

In: Entry COc1cccc2c1CC[C@H]1CN(CCn3c(=O)[nH]c4c(sc5cc([N+](=O)[O-])ccc54)c3=O)C[C@@H]21 [Example 47, hydrochloride] needs its pA2 Dog Prostate [α-1A] filled in; supply it.
Out: 8.7

In: Given the molecule COc1cccc2c1CC[C@H]1CN(CCn3cnc4c(sc5ncccc54)c3=O)C[C@@H]21 [Example 34, dihydrochloride] , write its reported pA2 Dog Prostate [α-1A].
Out: 9.15
